Assay: gradient 5% acetonitrile 3 min, to 50% in 2 min, to 85% in 15 min, held 3 min, 100 µL/min
Details: column: Zorbax Extend-C18 2.1 x 50 mm; eluents: water / acetonitrile, 0.1% formic acid
MEASURED_ENDPOINT: RP-LC retention time (s)

// known answers, use as guide
>>> experimental_result("Cc1ccccc1N1CCN(C(=O)C2CC(=O)N(CCc3ccccc3)C2)CC1 (stereo unspecified)")
725
>>> experimental_result("O=C(c1ccc(Cl)s1)N1CCC(n2cnnc2C2CC2)CC1")
664
>>> experimental_result("O=C(N[C@H]1C[C@@H]2C[C@H]1N(C(=O)c1ccc(F)c(Cl)c1)C2)c1ccccc1")
850

[A] O=C(c1cccc(-n2cnnn2)c1)N1CC(c2nc(-c3ccccn3)no2)C1
[B] O=C(COc1ccccc1[N+](=O)[O-])Nc1nc2c(s1)CCc1ccccc1-2
Exercise: Return label of the item with the larger RP-LC retention time. Candidates: A , B . Answer with the label corresponding to your selection.
Key: B
(B: 1030 s, A: 648 s)

====

Assay: gradient 5% acetonitrile 3 min, to 50% in 2 min, to 85% in 15 min, held 3 min, 100 µL/min
Details: column: Zorbax Extend-C18 2.1 x 50 mm; eluents: water / acetonitrile, 0.1% formic acid
MEASURED_ENDPOINT: RP-LC retention time (s)

>>> experimental_result("CCCN(CCC)C(=O)Cn1c(CN(C)C(C)=O)nc2ccccc21")
630
>>> experimental_result("COc1ccc(-n2ccn3cc(-c4cccs4)nc3c2=O)cc1Cl")
818
>>> experimental_result("CCCn1cnc2cc(CNC(=O)C3CC(=O)N(c4cccc(Cl)c4)C3)ccc21 (stereo not drawn)")
659
>>> experimental_result("COc1cccc2c1OC1(CCN(C(C)=O)CC1)N1N=C(c3cccs3)CC21 (stereo not drawn)")
835
>>> experimental_result("Cn1nc(C(=O)N2CC(n3cc(C(=O)NCC4CC4)nn3)C2)c2ccccc21")
734
>>> experimental_result("Cc1cccc(OCC(=O)c2ccc3c(c2)N(C(C)C(=O)N2CCOCC2)C(=O)CO3)c1C (stereo not drawn)")
877
>>> experimental_result("COc1ccc(CNC(=O)Cc2nnc(-c3ccsc3)o2)c(OC)c1")
692
>>> experimental_result("CSc1ncn(-c2nc(NC(C)C)nc(N(C)C)n2)n1")
874
>>> experimental_result("O=C(NCCc1ccccc1)N1CCN(c2ncccc2-c2nnc(C3CC3)o2)CC1")
765
>>> experimental_result("COc1cccc([C@@]2(O)CCCC[C@H]2CN(C)C)c1")
591
>>> experimental_result("COc1ccccc1-n1ccn2cc(-c3cccc(Cl)c3)nc2c1=O")
873
>>> experimental_result("CCOc1ccccc1-c1noc(Cn2ncn3nc(-c4ccc(F)cc4)cc3c2=O)n1")
1080
>>> experimental_result("CC(NC(=O)c1cccc(NC(=O)c2ccco2)c1)C(=O)N1CCCc2ccccc21 (stereo not drawn)")
804

====

Experiment: gradient 5% acetonitrile 3 min, to 50% in 2 min, to 85% in 15 min, held 3 min, 100 µL/min
Settings: column: Zorbax Extend-C18 2.1 x 50 mm; eluents: water / acetonitrile, 0.1% formic acid
MEASURED_ENDPOINT: RP-LC retention time (s)

>>> experimental_result("O=C([C@@H]1C[C@H](F)CN1C(=O)Nc1cccc(C(F)(F)F)c1)N1CCOCC1")
698
>>> experimental_result("CCN(CC)S(=O)(=O)c1ccc2c(c1)cc(C(=O)NCCC(C)N1CCCC1)n2C (configuration not stated)")
658
>>> experimental_result("CC(C(=O)NCCCN1CCCC1=O)C1CCN(C(=O)c2cc3cc(Cl)ccc3[nH]2)CC1 (configuration not stated)")
698
>>> experimental_result("O=C(NCCc1cccs1)C1CCc2nc(N3CCCC3)ncc2C1 (configuration not stated)")
857
>>> experimental_result("CN1C(=O)c2cc(S(=O)(=O)Nc3ccc4c(c3)OCO4)ccc2Oc2cccnc21")
850
>>> experimental_result("Cc1ccc(NC(=O)N2CCC(n3cnc4c(C)cccc4c3=O)CC2)cc1C")
872
>>> experimental_result("Cc1cccc(-n2c(=O)c3c(cc(C)n3C)n(CC(=O)Nc3c(C)cccc3C)c2=O)c1")
906

Entry source: the METLIN SMRT retention time set (Domingo-Almenara et al. 2019)
